Tested on: α-isomaltosylglucosaccharide-forming enzyme from Bacillus globisporus N75
test: Action on saccharides (TLC before and after enzymatic reaction)
Assay type: biochemical
Set-up: key: −: it showed no change; +: it showed a slight reduction of the color spot of the substrate and the formation of other reaction product; ++: it showed a high reduction of the color spot of the substrate and the formationof other reaction product; +++: it showed a substantial disappearance of the substrate spot and the formation of other reaction product
conditionDescription: two units/g substrate, substrate 2% (w/v), 30° C., pH 6.0, 24 hours
Description: It was tested whether saccharides can be used as substrates for the polypeptide of α-isomaltosylglucosaccharide-forming enzyme of the present invention. […]
measurementType: Enzyme action, N75 enzyme

# molecule, measuredValue
data = [
    ("OC[C@H]1O[C@H](O[C@H]2[C@H](O)[C@@H](O)[C@@H](O[C@H]3[C@H](O)[C@@H](O)[C@@H](O[C@H]4[C@H](O)[C@@H](O)C(O)O[C@@H]4CO)O[C@@H]3CO)O[C@@H]2CO)[C@H](O)[C@@H](O)[C@@H]1O (stereo partly drawn) [Maltotetraose, maltotetraose]", "+++"),
    ("O=C[C@H](O)[C@@H](O)[C@H](O[C@@H]1O[C@H](CO)[C@@H](O)[C@H](O)[C@H]1O)[C@H](O)CO [Cellobiose, cellobiose]", "−"),
    ("OC[C@H]1O[C@@H](O[C@H]2[C@H](O)[C@@H](O)C(O)O[C@@H]2CO)[C@H](O)[C@@H](O)[C@H]1O (stereo partly drawn) [Lactose, lactose]", "−"),
]

====

Tested on: polypeptide having α-isomaltosylglucosaccharide-forming enzyme activity, obtained in Experiment 1-3
test: Reaction product from maltooligosaccharide (sugar composition by HPLC)
Type: biochemical, Bacillus globisporus C11
Parameters: unit not given here
conditionDescription: 1% (w/v) substrate, 0.1 unit/g-solid, 35° C., pH 6.0, 8 hours
Answer each item with its documented Sugar composition of reaction mixture, substrate Maltopentaose.
# output: bare number, no unit

Ask: Tell me the measured Sugar composition of reaction mixture, substrate Maltopentaose of "OC[C@H]1O[C@H](O[C@H]2[C@H](O)[C@@H](O)[C@H](O)O[C@@H]2CO)[C@H](O)[C@@H](O)[C@@H]1O" , please.
Reply: 0.0

Ask: Tell me the measured Sugar composition of reaction mixture, substrate Maltopentaose of OC[C@H]1O[C@H](OC[C@H]2O[C@H](O[C@H]3[C@H](O)[C@@H](O)[C@@H](O[C@H]4[C@H](O)[C@@H](O)[C@@H](O[C@H]5[C@H](O)[C@@H](O)[C@@H](O[C@H]6[C@H](O)[C@@H](O)C(O)O[C@@H]6CO)O[C@@H]5CO)O[C@@H]4CO)O[C@@H]3CO)[C@H](O)[C@@H](O)[C@@H]2O)[C@H](O)[C@@H](O)[C@@H]1O (stereo partly drawn) , please.
Reply: 26.8

Ask: Tell me the measured Sugar composition of reaction mixture, substrate Maltopentaose of OC[C@H]1O[C@H](OC[C@H]2O[C@H](O[C@H]3[C@H](O)[C@@H](O)[C@@H](O[C@H]4[C@H](O)[C@@H](O)[C@@H](O[C@H]5[C@H](O)[C@@H](O)C(O)O[C@@H]5CO)O[C@@H]4CO)O[C@@H]3CO)[C@H](O)[C@@H](O)[C@@H]2O)[C@H](O)[C@@H](O)[C@@H]1O (stereo partly drawn) , please.
Reply: 11.4

Ask: Tell me the measured Sugar composition of reaction mixture, substrate Maltopentaose of OC[C@H]1O[C@H](OC[C@H]2OC(O)[C@H](O)[C@@H](O)[C@@H]2O)[C@H](O)[C@@H](O)[C@@H]1O (stereo partly drawn) , please.
Reply: 0.0

Ask: Tell me the measured Sugar composition of reaction mixture, substrate Maltopentaose of OC[C@H]1O[C@H](OC[C@H]2O[C@H](O[C@H]3[C@H](O)[C@@H](O)C(O)O[C@@H]3CO)[C@H](O)[C@@H](O)[C@@H]2O)[C@H](O)[C@@H](O)[C@@H]1O (stereo partly drawn) , please.
Reply: 0.0

Ask: Tell me the measured Sugar composition of reaction mixture, substrate Maltopentaose of OC[C@H]1O[C@H](O[C@H]2[C@H](O)[C@@H](O)[C@@H](O[C@H]3[C@H](O)[C@@H](O)[C@@H](O[C@H]4[C@H](O)[C@@H](O)C(O)O[C@@H]4CO)O[C@@H]3CO)O[C@@H]2CO)[C@H](O)[C@@H](O)[C@@H]1O (stereo partly drawn) , please.
Reply: 19.2

====

Tested on: polypeptide having α-isomaltosylglucosaccharide-forming enzyme activity
test: Action on saccharides, summary in words for the polypeptide in general
Type: biochemical
conditionDescription: summary of Table 7
Procedure: It was tested whether saccharides can be used as substrates for the polypeptide of α-isomaltosylglucosaccharide-forming enzyme of the present invention. […]
measurementType: Action of the polypeptide on the saccharide (in words)

# compound, measuredValue
data = [
    ("OC[C@H]1O[C@@](CO)(O[C@H]2O[C@H](CO)[C@@H](O[C@H]3O[C@H](CO)[C@@H](O)[C@H](O)[C@H]3O)[C@H](O)[C@H]2O)[C@@H](O)[C@@H]1O [Erlose, erlose]", "slightly acted"),
    ("OC[C@@H](O)[C@@H](O[C@H]1O[C@H](CO)[C@@H](O[C@H]2O[C@H](CO)[C@@H](O)[C@H](O)[C@H]2O)[C@H](O)[C@H]1O)[C@H](O)[C@@H](O)CO [Maltotriitol, maltotriitol]", "slightly acted"),
    ("OC[C@H]1O[C@@H](O[C@H]2O[C@H](CO)[C@@H](O)[C@H](O)[C@H]2O)[C@H](O)[C@@H](O)[C@@H]1O [Neotrehalose, neotrehalose]", "slightly acted"),
]

====

System: α-isomaltosylglucosaccharide-forming enzyme from Arthrobacter globiformis A19
test: Action on saccharides (TLC before and after enzymatic reaction)
Assay type: biochemical
Parameters: key: −: it showed no change; +: it showed a slight reduction of the color spot of the substrate and the formation of other reaction product; ++: it showed a high reduction of the color spot of the substrate and the formationof other reaction product; +++: it showed a substantial disappearance of the substrate spot and the formation of other reaction product
conditionDescription: two units/g substrate, substrate 2% (w/v), 30° C., pH 8.4, 24 hours
measurementType: Enzyme action, A19 enzyme

Observe how each entry below is paired with its result.
# compound, measuredValue
measured = [
    ("OC[C@H]1O[C@H](O[C@H]2[C@H](O)[C@@H](O)[C@@H](O[C@H]3[C@H](O)[C@@H](O)[C@@H](O[C@H]4[C@H](O)[C@@H](O)C(O)O[C@@H]4CO)O[C@@H]3CO)O[C@@H]2CO)[C@H](O)[C@@H](O)[C@@H]1O (some centres unmarked) [Maltotetraose, maltotetraose]", "+++"),
    ("OC[C@H]1O[C@H](O[C@H]2[C@H](O)[C@@H](O)[C@@H](OC[C@H]3OC(O)[C@H](O)[C@@H](O)[C@@H]3O)O[C@@H]2CO)[C@H](O)[C@@H](O)[C@@H]1O (some centres unmarked) [Isopanose, isopanose]", "++"),
    ("OC[C@H]1O[C@@H](O[C@H]2[C@H](O)[C@@H](O)C(O)O[C@@H]2CO)[C@H](O)[C@@H](O)[C@H]1O (some centres unmarked) [Lactose, lactose]", "−"),
    ("OC[C@@H](O)[C@@H](O[C@H]1O[C@H](CO)[C@@H](O[C@H]2O[C@H](CO)[C@@H](O)[C@H](O)[C@H]2O)[C@H](O)[C@H]1O)[C@H](O)[C@@H](O)CO [Maltotriitol, maltotriitol]", "+"),
]

Ask: Tell me the measured Enzyme action, A19 enzyme of O=C[C@H](O)[C@@H](O)[C@H](O[C@@H]1O[C@H](CO)[C@@H](O)[C@H](O)[C@H]1O)[C@H](O)CO [Cellobiose, cellobiose] , please.
Reply: −

====

Tested on: polypeptide having α-isomaltosylglucosaccharide-forming enzyme activity, obtained in Experiment 1-3
test: Reaction product from maltooligosaccharide (sugar composition by HPLC)
Type: biochemical, Bacillus globisporus C11
Parameters: unit not given here
conditionDescription: 1% (w/v) substrate, 0.2 unit/g-solid, 35° C., pH 6.0, 8 hours
measurementType: Sugar composition of reaction mixture, substrate Maltotetraose
# output: bare number, no unit

Ask: Tell me the measured Sugar composition of reaction mixture, substrate Maltotetraose of OC[C@H]1O[C@H](OC[C@H]2O[C@H](O[C@H]3[C@H](O)[C@@H](O)[C@@H](O[C@H]4[C@H](O)[C@@H](O)[C@@H](O[C@H]5[C@H](O)[C@@H](O)[C@@H](O[C@H]6[C@H](O)[C@@H](O)C(O)O[C@@H]6CO)O[C@@H]5CO)O[C@@H]4CO)O[C@@H]3CO)[C@H](O)[C@@H](O)[C@@H]2O)[C@H](O)[C@@H](O)[C@@H]1O (stereo partly shown) , please.
Reply: 1.4

Ask: Tell me the measured Sugar composition of reaction mixture, substrate Maltotetraose of OC[C@H]1O[C@H](OC[C@H]2OC(O)[C@H](O)[C@@H](O)[C@@H]2O)[C@H](O)[C@@H](O)[C@@H]1O (stereo partly shown) , please.
Reply: 0.0

Ask: Tell me the measured Sugar composition of reaction mixture, substrate Maltotetraose of "OC[C@H]1O[C@H](O[C@H]2[C@H](O)[C@@H](O)[C@H](O)O[C@@H]2CO)[C@H](O)[C@@H](O)[C@@H]1O" , please.
Reply: 0.3

Ask: Tell me the measured Sugar composition of reaction mixture, substrate Maltotetraose of OC[C@H]1O[C@H](OC[C@H]2O[C@H](O[C@H]3[C@H](O)[C@@H](O)[C@@H](O[C@H]4[C@H](O)[C@@H](O)[C@@H](O[C@H]5[C@H](O)[C@@H](O)C(O)O[C@@H]5CO)O[C@@H]4CO)O[C@@H]3CO)[C@H](O)[C@@H](O)[C@@H]2O)[C@H](O)[C@@H](O)[C@@H]1O (stereo partly shown) , please.
Reply: 30.0
